Molecular target: T1, serum purified human Complement Factor D (human, UniProt P00746 26-253)
T1 construct: Serum purified protein flowed over the captured antibodies; also called CFD; human CFD
T1 sequence (P00746 26-253): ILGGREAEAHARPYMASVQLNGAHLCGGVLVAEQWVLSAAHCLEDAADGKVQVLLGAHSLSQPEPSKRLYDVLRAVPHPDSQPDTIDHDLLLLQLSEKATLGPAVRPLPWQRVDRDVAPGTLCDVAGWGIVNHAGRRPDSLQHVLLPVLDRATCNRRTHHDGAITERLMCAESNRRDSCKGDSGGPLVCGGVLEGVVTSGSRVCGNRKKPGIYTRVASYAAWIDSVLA
Test: SPR Biacore, antibody on protein A chip, single cycle kinetics, 37 C;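 note: antibodies captured on the protein A surface to roughly 70 RU in HBS-EP+ buffer, with rate and affinity constants fitted using BIAevaluation software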
Entries and their Kd
Write down the numeric answer in nM and omit the unit.

Can you share its Kd? I mean this binder: 54V59D / 54R101V (antibody, V domains shown, KCD119 TAF variant) VH: EVQLVESGGGLVQPGGSLRLSCAASGYTFTDYYMNWVRQAPGKGLEWIGDINPVTGDTDYNADFKRRFTFSLDTSKSTAYLQMNSLRAEDTAVYYCTREGPSFAYWGQGTLVTVSS VL: DIQLTQSPSSLSASVGDRVTITCRSSQTIVHSNGDTYLEWYQQKPGKAPNLLIRKVSNRFSGVPSRFSGSGSGTDFTLTISSLQPEDFATYYCFQGSHVPVTFGQGTKVEIKR
0.0154

Bench note: what Kd did 31S54I59D / 54G101V (antibody, V domains shown, KCD119 TAF variant; full antibody captured on protein A) VH: EVQLVESGGGLVQPGGSLRLSCAASGYTFTSYYMNWVRQAPGKGLEWIGDINPITGDTDYNADFKRRFTFSLDTSKSTAYLQMNSLRAEDTAVYYCTREGPSFAYWGQGTLVTVSS VL: DIQLTQSPSSLSASVGDRVTITCRSSQTIVHSNGDTYLEWYQQKPGKAPNLLIGKVSNRFSGVPSRFSGSGSGTDFTLTISSLQPEDFATYYCFQGSHVPVTFGQGTKVEIK show?
0.00931
